Attribution: patent US4715994A

target: dehydropeptidase-I (renal dipeptidase, EC 3.4.13.11) (Sus scrofa, UniProt P22412); construct: isolated from hog kidneys; from tissue; host or cells: hog kidney, solubilized and lyophilized enzyme preparation; assay: Renal dehydropeptidase I inhibition (hydrolysis of glycyldehydrophenylalanine); type: biochemical, hog
Sequence (P22412 17-409): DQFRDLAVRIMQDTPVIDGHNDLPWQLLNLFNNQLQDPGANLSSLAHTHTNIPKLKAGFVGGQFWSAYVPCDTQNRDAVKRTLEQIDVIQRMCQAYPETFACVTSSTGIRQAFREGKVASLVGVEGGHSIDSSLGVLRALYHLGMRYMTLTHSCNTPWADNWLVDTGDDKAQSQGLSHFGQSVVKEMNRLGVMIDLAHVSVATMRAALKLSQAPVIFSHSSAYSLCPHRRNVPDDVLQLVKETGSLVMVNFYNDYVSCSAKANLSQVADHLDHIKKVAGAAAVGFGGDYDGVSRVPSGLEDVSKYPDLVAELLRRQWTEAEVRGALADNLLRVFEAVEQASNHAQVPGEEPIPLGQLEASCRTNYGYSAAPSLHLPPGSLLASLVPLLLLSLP
# Lookup of reported pKi keyed by entry
Scale note: pKi = -log10(concentration in M).

// worked examples, pKi included
**Q:** Given C=C(CP(=O)(O)[C@@H](C)N)C(=O)O , state its recorded pKi.
**A:** 6.64

**Q:** Given CC(CP(=O)(O)[C@H](C)N)C(=O)O (stereo partly drawn) , state its recorded pKi.
**A:** 8.00

**Q:** Given C[C@H](N)P(=O)(O)CC(CCCc1ccccc1)C(=O)O (stereo partly drawn) , state its recorded pKi.
**A:** 7.57

**Q:** Given CC(CP(=O)(O)[C@@H](C)N)C(=O)O (stereo partly drawn) , state its recorded pKi.
**A:** 6.85

**Q:** Given CC(CP(=O)(O)C(C)N)C(=O)O (stereo not drawn) , state its recorded pKi.
**A:** 8.00

New cases:
**Q:** Given C=C(CP(=O)(O)[C@H](C)N)C(=O)O , state its recorded pKi.
**A:** 7.57
